- tgt: MNK1a (pre-activated GST-MNK1a) (Homo sapiens (Human), UniProt Q9BUB5)
- Sequence (Q9BUB5 other isoform, or with tags, fused parts or gaps): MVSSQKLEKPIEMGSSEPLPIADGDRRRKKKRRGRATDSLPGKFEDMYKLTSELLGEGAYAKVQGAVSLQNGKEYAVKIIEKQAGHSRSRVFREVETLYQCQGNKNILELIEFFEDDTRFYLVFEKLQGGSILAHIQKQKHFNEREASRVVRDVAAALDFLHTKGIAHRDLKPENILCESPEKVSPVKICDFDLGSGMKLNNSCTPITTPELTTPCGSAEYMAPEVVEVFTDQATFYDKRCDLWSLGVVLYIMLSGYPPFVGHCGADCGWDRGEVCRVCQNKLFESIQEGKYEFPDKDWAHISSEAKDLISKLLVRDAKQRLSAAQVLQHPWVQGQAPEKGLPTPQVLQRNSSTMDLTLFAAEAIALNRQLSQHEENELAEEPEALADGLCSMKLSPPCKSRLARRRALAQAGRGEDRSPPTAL
- testDetails: MNK1 in vitro kinase assay (assay 2), Z'-LYTE
- Format: biochemical
- testContext: compound concentration of 1 μM, read-out: Mnk1 % Inh
Reported inhibition at 1 µM values follow for various compounds
Answer format: value, then unit.

Solved entries:
Task item: What value of measured inhibition at 1 µM is listed for COc1c(N=S(C)(C)=O)cc2ncnc(Nc3ccc(F)cc3OC3CCOCC3)c2c1C ?
Reply: 98%

Task item: Consider next the compound COc1c(N=S(C)(C)=O)cc2ncnc(Nc3ccc(F)cc3OC3CCOCC3)c2c1Cl in the same way.
Reply: 94%

Task item: And then COc1c(N=S(C)(=O)C2CC2)cc2ncnc(Nc3ccc(F)cc3O[C@@H]3CO[C@@H]4CCO[C@@H]43)c2c1C (stereo partly drawn) , what is it?
Reply: 97%

Task item: And then COc1c(N=S2(=O)CCCC2)cc2ncnc(Nc3ccc(Cl)cc3O[C@H](C)C(=O)NCC(F)(F)F)c2c1C , what is it?
Reply: 97%

Task item: COc1c(N=S2(=O)CCC2)cc2ncnc(Nc3ccc(F)cc3O[C@@H]3CO[C@H]4[C@@H]3OC[C@H]4OC)c2c1C , same question.
Reply: 106%

Task item: Likewise for COc1c(N=S2(=O)CCCC2)cc2ncnc(Nc3ccc(F)cc3O[C@H](C)C(=O)NCC(F)(F)F)c2c1C ?
Reply: 100%

Task item: Entry COc1c(N=S2(=O)CCC2)cc2ncnc(Nc3ccc(F)cc3O[C@H](C)C(=O)N[C@@H](C)C(F)(F)F)c2c1C please
Reply: 105%

Task item: Now give it for COc1c(N=S(C)(C)=O)cc2ncnc(Nc3ccc(F)cc3O[C@@H]3CO[C@H]4[C@@H]3OC[C@H]4O)c2c1C too.
Reply: 103%

More entries:
Task item: Give its inhibition at 1 µM value. Item: COc1c(N=S(C)(=O)C(C)C)cc2ncnc(Nc3ccc(F)cc3O[C@@H]3CO[C@@H]4CCO[C@@H]43)c2c1C (stereo partly drawn)
Reply: 96%
